# tested on: UniProt P25100
# Sequence (P25100 whole entry): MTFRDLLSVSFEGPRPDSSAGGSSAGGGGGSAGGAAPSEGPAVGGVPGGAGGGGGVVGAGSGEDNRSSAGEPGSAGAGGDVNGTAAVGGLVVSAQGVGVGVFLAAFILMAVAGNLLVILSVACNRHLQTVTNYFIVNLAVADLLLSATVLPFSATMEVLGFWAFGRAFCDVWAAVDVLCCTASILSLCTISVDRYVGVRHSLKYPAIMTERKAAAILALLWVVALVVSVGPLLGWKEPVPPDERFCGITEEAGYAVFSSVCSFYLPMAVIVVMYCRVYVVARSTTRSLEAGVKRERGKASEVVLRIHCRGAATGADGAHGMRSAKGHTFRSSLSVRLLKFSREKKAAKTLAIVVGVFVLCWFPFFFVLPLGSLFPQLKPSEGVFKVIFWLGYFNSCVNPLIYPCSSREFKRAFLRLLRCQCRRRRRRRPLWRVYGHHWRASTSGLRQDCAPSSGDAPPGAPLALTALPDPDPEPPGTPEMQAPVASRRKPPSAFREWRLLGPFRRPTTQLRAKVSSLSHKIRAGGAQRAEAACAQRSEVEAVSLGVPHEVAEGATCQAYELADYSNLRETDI
# Assay type: cell membranes, HEK293, Membrane
# settings: read-out: Ki
Consider the following compounds; for each one, report its log10(Ki).
Quick note: numbers are log10 of Ki, with nM as the unit.

Reference set, count: 4
*Q* Can you look up the measured log10(Ki) of Clc1ccc(COC(Cn2ccnc2)c2ccc(Cl)cc2Cl)c(Cl)c1 (stereo not given) for me?
*A* 3.18

*Q* Can you look up the measured log10(Ki) of CN(C)CCC=C1c2ccccc2CCc2ccccc21 for me?
*A* 1.72

*Q* Can you look up the measured log10(Ki) of CN1CCN(C(c2ccccc2)c2ccccc2)CC1 for me?
*A* 2.78

*Q* Can you look up the measured log10(Ki) of OCCOCCN1CCN(C2=Nc3ccccc3Sc3ccccc32)CC1 for me?
*A* 1.68

Lab note: next compound to report on.
*Q* Can you look up the measured log10(Ki) of CC(C)C[C@H]1C(=O)N2CCC[C@H]2[C@]2(O)O[C@](NC(=O)[C@@H]3C=C4c5cccc6[nH]cc(c56)C[C@H]4N(C)C3)(C(C)C)C(=O)N12 for me?
*A* 1.38

====

# tested on: Cytochrome P450 2E1 (Homo sapiens); further: in other assays of this panel Not Active means under 50% inhibition at 10 µM
# Sequence (P05181 whole entry): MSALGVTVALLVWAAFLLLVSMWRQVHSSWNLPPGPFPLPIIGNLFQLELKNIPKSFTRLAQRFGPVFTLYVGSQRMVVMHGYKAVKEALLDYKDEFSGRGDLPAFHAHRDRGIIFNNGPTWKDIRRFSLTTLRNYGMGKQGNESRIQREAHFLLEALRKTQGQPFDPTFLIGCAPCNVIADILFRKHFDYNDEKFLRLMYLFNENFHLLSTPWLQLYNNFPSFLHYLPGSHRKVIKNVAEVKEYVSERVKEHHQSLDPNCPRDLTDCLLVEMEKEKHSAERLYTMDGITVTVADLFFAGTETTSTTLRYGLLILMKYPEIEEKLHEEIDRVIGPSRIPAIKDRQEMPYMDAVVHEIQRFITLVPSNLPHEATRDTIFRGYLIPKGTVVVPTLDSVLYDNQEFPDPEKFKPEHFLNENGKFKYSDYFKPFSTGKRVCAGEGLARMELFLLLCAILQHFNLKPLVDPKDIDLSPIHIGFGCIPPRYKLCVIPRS
result type: pIC50
One number for each entry, as −log10 of the molar value.

*Q* # query: pIC50 | item ClC(Cl)(Cl)Cl [CARBON TETRACHLORIDE] | system: Cytochrome P450 2E1 (Homo sapiens); further: in other assays of this panel Not Active means under 50% inhibition at 10 µM
*A* 4.96

====

# tested on: Estrogen receptor (Homo sapiens, UniProt P03372); further: in other assays of this panel Not Active means under 50% inhibition at 10 µM
# Sequence (P03372 whole entry): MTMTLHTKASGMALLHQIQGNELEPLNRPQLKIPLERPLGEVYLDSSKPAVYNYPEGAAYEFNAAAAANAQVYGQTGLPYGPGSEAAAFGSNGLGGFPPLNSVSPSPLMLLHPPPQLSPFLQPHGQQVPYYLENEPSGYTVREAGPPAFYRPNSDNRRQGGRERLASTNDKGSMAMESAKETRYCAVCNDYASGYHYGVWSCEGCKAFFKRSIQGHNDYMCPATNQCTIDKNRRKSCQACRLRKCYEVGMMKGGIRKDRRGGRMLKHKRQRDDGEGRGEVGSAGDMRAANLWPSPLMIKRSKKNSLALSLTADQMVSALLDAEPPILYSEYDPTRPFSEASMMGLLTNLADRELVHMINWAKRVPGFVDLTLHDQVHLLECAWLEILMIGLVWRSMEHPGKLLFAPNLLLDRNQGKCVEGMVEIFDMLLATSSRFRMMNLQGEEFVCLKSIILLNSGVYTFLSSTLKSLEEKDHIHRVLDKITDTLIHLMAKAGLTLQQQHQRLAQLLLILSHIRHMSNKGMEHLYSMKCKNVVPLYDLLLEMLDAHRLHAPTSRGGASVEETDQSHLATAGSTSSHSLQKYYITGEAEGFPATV
# settings: sf9
result type: IC50

Reference set, count: 5
*Q* Can you look up the measured IC50 of O=C(c1ccccc1F)N1CCC(Cc2ccccc2)CC1 for me?
*A* Not Active

*Q* Can you look up the measured IC50 of C[C@]12C=CC(=O)C=C1CC[C@H]1[C@@H]3C[C@@H](O)[C@](O)(C(=O)CO)[C@@]3(C)C[C@H](O)[C@@]12F [TRIAMCINOLONE] for me?
*A* Not Active

*Q* Can you look up the measured IC50 of CC(=O)OCC(=O)[C@@]12OC(C)(C)O[C@@H]1C[C@H]1[C@@H]3C[C@H](F)C4=CC(=O)C=C[C@]4(C)[C@@]3(F)[C@@H](O)C[C@@]12C [FLUOCINONIDE] for me?
*A* Not Active

*Q* Can you look up the measured IC50 of CN(C)C(=O)C(CCN1CCC(O)(c2ccc(Cl)cc2)CC1)(c1ccccc1)c1ccccc1 [LOPERAMIDE] for me?
*A* Not Active

*Q* Can you look up the measured IC50 of COC(=O)Nc1nc2cc(C(=O)c3ccc(F)cc3)ccc2[nH]1 [FLUBENDAZOLE] for me?
*A* Not Active

Provide each entry's IC50 from the list below.
1. C[N+](C)(C)CCOC(=O)CCC(=O)OCC[N+](C)(C)C.[Cl-].[Cl-] [SUCCINYLCHOLINE CHLORIDE]
2. CN1CCN(c2c(F)cc3c(=O)c(C(=O)O)cn(CCF)c3c2F)CC1 [FLEROXACIN]
3. Clc1ccc(COC(Cn2ccnc2)c2ccc(Cl)cc2Cl)c(Cl)c1 (stereo unspecified) [MICONAZOLE]
4. CN1CCCC(CN2c3ccccc3Sc3ccccc32)C1 (stereo unspecified) [MEPAZINE]
5. CC(=O)OC[C@H]1O[C@@H](n2ncc(=O)[nH]c2=O)[C@H](OC(C)=O)[C@@H]1OC(C)=O [AZARIBINE]
6. COc1ccnc(C[S+]([O-])c2nc3ccc(OC(F)F)cc3[nH]2)c1OC (stereo unspecified) [PANTOPRAZOLE]

*A*
1: Not Active; 2: Not Active; 3: Not Active; 4: Not Active; 5: Not Active; 6: Not Active

Provide each entry's IC50 from the list below.
1. CC(=O)OCC(=O)[C@@]1(O)CC[C@H]2[C@@H]3CCC4=CC(=O)CC[C@]4(C)[C@@]3(F)[C@@H](O)C[C@@]21C [FLUDROCORTISONE ACETATE]
2. CCCCC1=NC2(CCCC2)C(=O)N1Cc1ccc(-c2ccccc2-c2nnn[nH]2)cc1 [IRBESARTAN]
3. O=C(O)c1cc(-c2ccc(F)cc2F)ccc1O [DIFLUNISAL]
4. CC(C)(C(=O)O)c1ccc(C(O)CCCN2CCC(C(O)(c3ccccc3)c3ccccc3)CC2)cc1 (stereo unspecified) [FEXOFENADINE]
5. Nc1ccc(S(=O)(=O)NC(=O)c2ccccc2)cc1 [SULFABENZAMIDE]

*A*
1. Not Active
2. Not Active
3. Not Active
4. Not Active
5. Not Active

====

# assay remarks: DRUGMATRIX: Purinergic P2X radioligand binding (ligand: [3H] alpha, beta-Methylene-ATP)
# Format: cell membranes, Oryctolagus cuniculus, New Zealand albino, Urinary bladder, Membrane
# settings: Not Active = under 50% inhibition at 10 µM
result type: IC50

Reference set, count: 8
*Q* Can you look up the measured IC50 of O=c1[nH]c(=O)n(C2CCCO2)cc1F (stereo unspecified) [TEGAFUR] for me?
*A* Not Active

*Q* Can you look up the measured IC50 of COC(=O)Nc1nc2cc(C(=O)c3ccc(F)cc3)ccc2[nH]1 [FLUBENDAZOLE] for me?
*A* Not Active

*Q* Can you look up the measured IC50 of CCc1ccc(CCOc2ccc(CC3SC(=O)NC3=O)cc2)nc1 (stereo unspecified) [PIOGLITAZONE] for me?
*A* Not Active

*Q* Can you look up the measured IC50 of Cc1cc(O)cc(C)c1Cl [CHLOROXYLENOL] for me?
*A* Not Active

*Q* Can you look up the measured IC50 of CCCCC(=O)N(Cc1ccc(-c2ccccc2-c2nnn[nH]2)cc1)[C@H](C(=O)O)C(C)C for me?
*A* Not Active

*Q* Can you look up the measured IC50 of N[C@@H](Cn1ccc(=O)c(O)c1)C(=O)O [L-MIMOSINE] for me?
*A* Not Active

*Q* Can you look up the measured IC50 of C[C@H]1[C@H](NC(=O)/C(=N\OC(C)(C)C(=O)O)c2csc(N)n2)C(=O)N1S(=O)(=O)O [AZTREONAM] for me?
*A* Not Active

*Q* Can you look up the measured IC50 of CC1CCC(NC(=O)N(CCCl)N=O)CC1 (stereo unspecified) [SEMUSTINE] for me?
*A* Not Active

Provide each entry's IC50 from the list below.
1. O=C(O)c1cc(-c2ccc(F)cc2F)ccc1O [DIFLUNISAL]
2. CC1=NN(c2ccccc2)C(=O)C1 [EDARAVONE]
3. Cc1cccc(C)c1NC(=O)C1CCCCN1C (stereo unspecified) [MEPIVACAINE]

*A*
1. Not Active
2. Not Active
3. Not Active

====

# tested on: UniProtKB P08588
# Sequence (P08588 whole entry): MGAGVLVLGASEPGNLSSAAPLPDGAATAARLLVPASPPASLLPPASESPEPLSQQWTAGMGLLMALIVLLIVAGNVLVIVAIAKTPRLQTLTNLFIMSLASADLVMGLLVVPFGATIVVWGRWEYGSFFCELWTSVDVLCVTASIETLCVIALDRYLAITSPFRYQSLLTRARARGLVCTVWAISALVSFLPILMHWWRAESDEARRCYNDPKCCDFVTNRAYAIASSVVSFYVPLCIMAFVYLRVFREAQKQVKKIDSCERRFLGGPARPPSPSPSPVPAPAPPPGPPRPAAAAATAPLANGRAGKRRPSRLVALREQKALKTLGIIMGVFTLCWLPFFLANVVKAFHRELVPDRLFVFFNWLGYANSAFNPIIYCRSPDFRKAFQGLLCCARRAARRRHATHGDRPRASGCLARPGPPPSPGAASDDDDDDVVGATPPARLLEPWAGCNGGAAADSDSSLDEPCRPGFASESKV
# assay remarks: DRUGMATRIX: Adrenergic beta1 radioligand binding (ligand: [125I] Cyanopindolol)
# Assay type: cell membranes, CHO-K1, Membrane
# settings: Not Active = under 50% inhibition at 10 µM; read-out: IC50
result type: pIC50
Numbers only, as −log10 of the molar value.

*Q* Can you look up the measured pIC50 of CC(C)NCC(O)c1ccccc1Cl (stereo unspecified) for me?
*A* 5.59

====

# assay remarks: DRUGMATRIX: beta-Lactamase enzyme inhibition (substrate: Nitrocefin)
# Parameters: species or system Bacillus cereus
# settings: Not Active = under 50% inhibition at 10 µM
result type: Ki

Reference set, count: 5
*Q* Can you look up the measured Ki of CC(C)c1c(C(=O)Nc2ccccc2)c(-c2ccccc2)c(-c2ccc(F)cc2)n1CC[C@@H](O)C[C@@H](O)CC(=O)O for me?
*A* Not Active

*Q* Can you look up the measured Ki of O=C(O)CCCCC1CCSS1 (stereo unspecified) for me?
*A* Not Active

*Q* Can you look up the measured Ki of CCCNC(C)C(=O)Nc1ccccc1C (stereo unspecified) for me?
*A* Not Active

*Q* Can you look up the measured Ki of CCCNC(=O)NS(=O)(=O)c1ccc(Cl)cc1 [CHLORPROPAMIDE] for me?
*A* Not Active

*Q* Can you look up the measured Ki of COc1cccc2c1C(=O)c1c(O)c3c(c(O)c1C2=O)C[C@@](O)(C(C)=O)C[C@@H]3O[C@H]1C[C@H](N)[C@H](O)[C@H](C)O1 for me?
*A* Not Active

Lab note: next molecule to report on.
*Q* Can you look up the measured Ki of COc1ccccc1N for me?
*A* Not Active
